- test_target: ABCG2 (BCRP) (Homo sapiens)
- Sequence (Q9UNQ0 whole entry): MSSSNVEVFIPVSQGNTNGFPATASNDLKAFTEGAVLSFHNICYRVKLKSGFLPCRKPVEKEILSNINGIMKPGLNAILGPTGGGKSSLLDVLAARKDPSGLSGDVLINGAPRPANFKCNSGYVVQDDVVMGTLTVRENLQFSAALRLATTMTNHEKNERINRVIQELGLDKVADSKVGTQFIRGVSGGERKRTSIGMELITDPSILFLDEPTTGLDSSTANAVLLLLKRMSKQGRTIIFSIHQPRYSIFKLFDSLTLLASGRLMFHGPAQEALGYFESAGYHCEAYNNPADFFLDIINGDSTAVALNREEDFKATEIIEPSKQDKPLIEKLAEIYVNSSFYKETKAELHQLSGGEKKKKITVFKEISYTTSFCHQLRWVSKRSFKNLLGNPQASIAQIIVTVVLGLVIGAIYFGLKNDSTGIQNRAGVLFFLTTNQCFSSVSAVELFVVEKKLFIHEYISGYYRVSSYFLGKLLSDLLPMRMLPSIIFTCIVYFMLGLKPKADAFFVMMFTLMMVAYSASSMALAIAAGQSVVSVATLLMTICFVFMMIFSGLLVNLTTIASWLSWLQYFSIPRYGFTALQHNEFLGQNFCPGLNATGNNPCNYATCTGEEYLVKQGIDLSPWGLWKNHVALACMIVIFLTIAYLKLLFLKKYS
- procedure_details: Transepithelial transport assay in MDCK-II cells transduced with human ABCG2
- Assay type: in vitro ADME
- run_conditions: human; danofloxacin 10 µM, positive control, 4 h, MDCK-II hABCG2; read-out: Transport ratio (BA/AB)
result_type: efflux ratio at 4 h, 10 µM

Problem: # query: efflux ratio at 4 h, 10 µM of entry CN1C[C@@H]2C[C@H]1CN2c1cc2c(cc1F)c(=O)c(C(=O)O)cn2C1CC1 [danofloxacin]
Solution: 2.04

====

- procedure_details: Transepithelial transport assay in parental MDCK-II cells
- Assay type: in vitro ADME, canine
- run_conditions: dog, danofloxacin 10 µM, positive control, read-out: Transport ratio (BA/AB)
result_type: efflux ratio at 4 h, 10 µM
Numbers only.

Problem: # query: efflux ratio at 4 h, 10 µM of entry CN1C[C@@H]2C[C@H]1CN2c1cc2c(cc1F)c(=O)c(C(=O)O)cn2C1CC1
Solution: 0.96
